# Experimental system: UniProt O95398
# Sequence (O95398 whole entry, the tested form may be a part): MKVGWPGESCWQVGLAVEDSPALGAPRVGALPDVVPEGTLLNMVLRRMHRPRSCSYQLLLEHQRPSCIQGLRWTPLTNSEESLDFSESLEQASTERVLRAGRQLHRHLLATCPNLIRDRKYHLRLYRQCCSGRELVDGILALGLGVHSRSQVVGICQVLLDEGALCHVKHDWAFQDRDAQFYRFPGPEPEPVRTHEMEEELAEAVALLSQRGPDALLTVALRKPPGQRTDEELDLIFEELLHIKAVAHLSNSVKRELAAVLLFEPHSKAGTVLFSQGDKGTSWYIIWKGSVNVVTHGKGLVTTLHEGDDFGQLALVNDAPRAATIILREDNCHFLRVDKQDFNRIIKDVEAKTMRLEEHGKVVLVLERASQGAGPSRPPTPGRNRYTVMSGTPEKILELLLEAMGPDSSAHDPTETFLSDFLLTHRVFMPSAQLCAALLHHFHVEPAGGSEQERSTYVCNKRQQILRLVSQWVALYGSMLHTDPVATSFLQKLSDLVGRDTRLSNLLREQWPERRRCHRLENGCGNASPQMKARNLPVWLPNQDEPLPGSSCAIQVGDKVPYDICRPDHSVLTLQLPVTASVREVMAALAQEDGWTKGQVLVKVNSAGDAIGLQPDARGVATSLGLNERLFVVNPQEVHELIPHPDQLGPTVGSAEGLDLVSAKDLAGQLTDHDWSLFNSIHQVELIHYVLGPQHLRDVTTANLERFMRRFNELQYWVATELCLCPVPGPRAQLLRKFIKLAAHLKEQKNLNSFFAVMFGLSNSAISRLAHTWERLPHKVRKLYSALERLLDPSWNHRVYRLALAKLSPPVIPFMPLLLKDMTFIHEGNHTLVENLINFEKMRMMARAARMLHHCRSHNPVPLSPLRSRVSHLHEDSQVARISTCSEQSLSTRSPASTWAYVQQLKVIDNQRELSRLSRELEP
# Measurement notes: Binding affinity to GST-tagged recombinant EPAC1 CNBD (169 to 318 residues) (unknown origin) expressed in Escherichia coli BL21 Star (DE3) assessed as relative fluorescence intensity incubated for 4 hrs by 8-NBD-cAMP competition binding assay relative to control
# Design: concentration or dose not given beside the values
Recorded metric: Activity (%)

a. O=C(COc1ccc2ccccc2c1)NS(=O)(=O)c1cccc(-c2ccccc2)c1
b. Cc1ccc(S(=O)(=O)NC(=O)COc2ccc3cc(F)ccc3c2)c(C)c1
c. Cc1cc(C)c(S(=O)(=O)NC(=O)CN2CCn3c(nnc3C(F)(F)F)C2)c(C)c1
d. COc1ccc(S(=O)(=O)NC(=O)COc2ccc3ccccc3c2)c(OC)c1
Put the molecules in ascending order of Activity. As an answer, provide the labels arranged in the order called for.
d, a, b, c

A. COC(=O)c1cccc(S(=O)(=O)NC(=O)COc2ccc3ccccc3c2)c1
B. Cc1cc(C)c(S(=O)(=O)NCCOc2ccc3ccccc3c2)c(C)c1
Field: lower recorded Activity (choose A or B ) // caller expects the label of the chosen entry
A

a. Cc1cc(C)c(S(=O)(=O)NC(=O)CNc2cccc(Cl)c2)c(C)c1
b. COc1ccc2ccc(OCC(=O)NS(=O)(=O)c3c(C)cc(C)cc3C)cc2c1
Field: lower recorded Activity (choose a or b ) // caller expects the label of the chosen entry
b
(b: 49%, a: 88%)

P. COc1ccc(OC)c(S(=O)(=O)NC(=O)COc2ccc3ccccc3c2)c1
Q. Cc1ccc(S(=O)(=O)NC(=O)COc2ccc3cc(Cl)ccc3c2)c(C)c1
R. COc1cccc(S(=O)(=O)NC(=O)COc2ccc3ccccc3c2)c1
S. Cc1cc(Nc2ccc(C(F)(F)F)cn2)cc(S(=O)(=O)NC(=O)COc2ccc3ccccc3c2)c1
Endpoint returns the given molecules ordered by ascending Activity. As an answer, provide the labels arranged in the order called for.
S, R, Q, P

1. Cc1cc(C)c(S(=O)(=O)NC(=O)CN2CCc3ccccc3C2)c(C)c1
2. Cc1ccc(S(=O)(=O)NC(=O)COc2ccc3ccccc3c2)c(C)c1
# returns the entry with the larger Activity; inputs 1 and 2 // caller expects the label of the chosen entry
1

a. COc1cc2c(cc1OC)CN(CC(=O)NS(=O)(=O)c1c(C)cc(C)cc1C)CC2
b. COc1ccc(OC)c(S(=O)(=O)NC(=O)COc2ccc3ccc(OC)cc3c2)c1
c. COc1ccc2ccc(OCC(=O)NS(=O)(=O)c3ccc(N)cc3OC)cc2c1
Rank descending by Activity. As an answer, provide the labels arranged in the order called for.
a, b, c

P. Cc1cc(C)c(S(=O)(=O)NC(=O)CSc2nc3ccccc3c(=O)[nH]2)c(C)c1
Q. Cc1ccc(S(=O)(=O)NC(=O)COc2ccc3ccccc3c2)cc1
R. Cc1ccc(S(=O)(=O)NC(=O)COc2ccc3ccc(Cl)cc3c2)c(C)c1
S. COc1ccc2ccc(OCC(=O)NS(=O)(=O)c3ccc([N+](=O)[O-])cc3OC)cc2c1
Rank descending by Activity. As an answer, provide the labels arranged in the order called for.
P, R, Q, S

I. O=C(COc1ccc2ccccc2c1)NS(=O)(=O)c1ccccc1F
II. Cc1cc(C)c(S(=O)(=O)N2CCC(Oc3ccc4ccccc4c3)CC2)c(C)c1
III. Cc1cc(-c2ccco2)cc(S(=O)(=O)NC(=O)COc2ccc3ccccc3c2)c1
Rank descending by Activity. As an answer, provide the labels arranged in the order called for.
II, I, III
